ASSAY_SYSTEM: mMC3R (Mus musculus, UniProt P33033)
Sequence (P33033 whole entry): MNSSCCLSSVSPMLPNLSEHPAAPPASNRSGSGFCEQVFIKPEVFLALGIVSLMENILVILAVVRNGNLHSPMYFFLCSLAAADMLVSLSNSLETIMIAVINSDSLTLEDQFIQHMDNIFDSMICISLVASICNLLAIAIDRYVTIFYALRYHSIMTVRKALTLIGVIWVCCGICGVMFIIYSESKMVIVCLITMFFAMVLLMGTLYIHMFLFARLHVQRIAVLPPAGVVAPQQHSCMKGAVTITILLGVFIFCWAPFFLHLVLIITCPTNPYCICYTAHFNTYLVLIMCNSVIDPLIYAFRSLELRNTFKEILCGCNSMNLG
TEST_PROTOCOL: Functional bioassay, CRE/β-galactosidase reporter in HEK-293 cells stably expressing mMC3R
Where a SMILES comes first, the peptide text is derived from it. Bridges are numbered along the chain shown (N, C = ends). [ ]: non-standard residue; d: D form. Dap = NC[C@H](N)C(=O)O
OBSERVED_PROPERTY: Kb (nM)
A number alone suffices; assume nM.

Would you kindly share the measured Kb for C[C@@H]1NC(=O)[C@H](CC(N)=O)NC(=O)[C@H](Cc2c[nH]c3ccccc23)NC(=O)[C@H](CCCNC(=N)N)NC(=O)[C@@H](Cc2ccccc2)NC(=O)[C@H](Cc2ccccc2)NC(=O)[C@@H](NC(=O)[C@@H](N)Cc2ccc(O)cc2)CC(=O)NC[C@@H](C(=O)N[C@@H](Cc2ccc(O)cc2)C(N)=O)NC(=O)[C@H](Cc2ccccc2)NC1=O [SEQ ID NO: 29] (H-YDF[dF]RWNAF[Dap]Y-NH2; lactam 2-10) ? 63.1

Would you kindly share the measured Kb for C[C@@H]1NC(=O)[C@H](CC(N)=O)NC(=O)[C@H](Cc2c[nH]c3ccccc23)NC(=O)[C@H](CCCNC(=N)N)NC(=O)[C@@H](Cc2ccccc2)NC(=O)[C@@H]2CCCN2C(=O)[C@@H](NC(=O)[C@@H](N)Cc2ccc(O)cc2)CC(=O)NC[C@@H](C(=O)N[C@@H](Cc2ccc(O)cc2)C(N)=O)NC(=O)[C@H](Cc2ccccc2)NC1=O [SEQ ID NO: 28] (H-YDP[dF]RWNAF[Dap]Y-NH2; lactam 2-10) ? 63.1

Would you kindly share the measured Kb for "C[C@@H]1NC(=O)[C@H](CC(N)=O)NC(=O)[C@H](Cc2c[nH]c3ccccc23)NC(=O)[C@H](CCCNC(=N)N)NC(=O)[C@@H](Cc2ccc3ccccc3c2)NC(=O)[C@H](Cc2c[nH]cn2)NC(=O)[C@@H](NC(=O)[C@@H](N)Cc2ccc(O)cc2)CC(=O)NC[C@@H](C(=O)N[C@@H](Cc2ccc(O)cc2)C(N)=O)NC(=O)[C@H](Cc2ccccc2)NC1=O" ? 5.01

Would you kindly share the measured Kb for "C[C@@H]1NC(=O)[C@H](CC(N)=O)NC(=O)[C@H](Cc2c[nH]c3ccccc23)NC(=O)[C@H](CCCNC(=N)N)NC(=O)[C@@H](Cc2ccc(I)cc2)NC(=O)[C@H](Cc2c[nH]cn2)NC(=O)[C@@H](NC(=O)[C@@H](N)Cc2ccc(O)cc2)CC(=O)NC[C@@H](C(=O)N[C@@H](Cc2ccc(O)cc2)C(N)=O)NC(=O)[C@H](Cc2ccccc2)NC1=O" ? 1.26

Would you kindly share the measured Kb for "C[C@@H]1NC(=O)[C@H](CC(N)=O)NC(=O)[C@H](Cc2ccccc2)NC(=O)[C@H](Cc2ccccc2)NC(=O)[C@H](CCCNC(=N)N)NC(=O)[C@@H](NC(=O)[C@@H](N)Cc2ccc(O)cc2)CC(=O)NC[C@@H](C(=O)N[C@@H](Cc2ccc(O)cc2)C(N)=O)NC(=O)[C@H](Cc2ccccc2)NC1=O" ? 2000

----------
Give measured Kb for each item. Keep answers brief.
ASSAY_SYSTEM: mMC4R (Mus musculus)
Sequence (P56450 whole entry): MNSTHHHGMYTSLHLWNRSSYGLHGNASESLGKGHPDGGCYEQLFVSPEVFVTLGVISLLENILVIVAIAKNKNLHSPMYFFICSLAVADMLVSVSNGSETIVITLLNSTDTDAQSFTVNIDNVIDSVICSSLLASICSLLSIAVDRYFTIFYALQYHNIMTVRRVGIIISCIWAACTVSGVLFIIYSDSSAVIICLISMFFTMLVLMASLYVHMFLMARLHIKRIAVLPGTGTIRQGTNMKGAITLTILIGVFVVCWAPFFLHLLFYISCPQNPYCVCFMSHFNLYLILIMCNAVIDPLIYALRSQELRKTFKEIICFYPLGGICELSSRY
TEST_PROTOCOL: Functional bioassay, CRE/β-galactosidase reporter in HEK-293 cells stably expressing mMC4R
A number alone suffices; assume nM.

Would you kindly share the measured Kb for C[C@@H]1NC(=O)[C@H](CC(N)=O)NC(=O)[C@H](Cc2ccccc2)NC(=O)[C@H](Cc2ccccc2)NC(=O)[C@H](CCCNC(=N)N)NC(=O)[C@@H](NC(=O)[C@@H](N)Cc2ccc(O)cc2)CC(=O)NC[C@@H](C(=O)N[C@@H](Cc2ccc(O)cc2)C(N)=O)NC(=O)[C@H](Cc2ccccc2)NC1=O [SEQ ID NO: 3] ? 1260

Would you kindly share the measured Kb for C[C@@H]1NC(=O)[C@H](CC(N)=O)NC(=O)[C@H](Cc2c[nH]c3ccccc23)NC(=O)[C@H](CCCNC(=N)N)NC(=O)[C@@H](Cc2ccc3ccccc3c2)NC(=O)[C@H](Cc2c[nH]cn2)NC(=O)[C@@H](NC(=O)[C@@H](N)Cc2ccc(O)cc2)CC(=O)NC[C@@H](C(=O)N[C@@H](Cc2ccc(O)cc2)C(N)=O)NC(=O)[C@H](Cc2ccccc2)NC1=O [SEQ ID NO: 33] ? 0.501

Would you kindly share the measured Kb for C[C@@H]1NC(=O)[C@H](CC(N)=O)NC(=O)[C@H](Cc2c[nH]c3ccccc23)NC(=O)[C@H](CCCNC(=N)N)NC(=O)[C@@H](Cc2ccc(I)cc2)NC(=O)[C@H](Cc2c[nH]cn2)NC(=O)[C@@H](NC(=O)[C@@H](N)Cc2ccc(O)cc2)CC(=O)NC[C@@H](C(=O)N[C@@H](Cc2ccc(O)cc2)C(N)=O)NC(=O)[C@H](Cc2ccccc2)NC1=O [SEQ ID NO: 32] ? 0.398
